This collection of values is drawn from paper PMC8268887.

Below, each entry is listed alongside its reported % MeCN at Elution, Luna.
# test: Hydrophobicity by retention in analytical RP-HPLC (% MeCN at peak elution)
# Assay type: physicochemical
# experimental.context: Phenomenex Luna C18(2) column; RP-HPLC gradient 0→60% B during 15 min; relative hydrophobicity
property.label: % MeCN at Elution, Luna (% MeCN)

{"columns": ["compound", "property.label", "readout.value"],
 "data": [
  ["NCCCC[C@H](NC(=O)CCN(Cc1ccc(F)cc1)C(=O)[C@H](CCCCN)NC(=O)CCN(Cc1ccc(F)cc1)C(=O)[C@H](CCCCN)NC(=O)COCCNC(=O)CCN(Cc1ccc(F)cc1)C(=O)[C@H](CCCCN)NC(=O)CCN(Cc1ccc(F)cc1)C(=O)[C@H](CCCCN)NC(=O)CCN(Cc1ccc(F)cc1)C(=O)[C@@H](N)CCCCN)C(=O)N(CCC(N)=O)Cc1ccc(F)cc1 [Compound 6, H-[X]3-sPEG1-[X]3-NH2]", "% MeCN at Elution, Luna", 41.2],
  ["NCCCC[C@H](NC(=O)CCN(Cc1ccc(F)cc1)C(=O)[C@H](CCCCN)NC(=O)CCN(Cc1ccc(F)cc1)C(=O)[C@H](CCCCN)NC(=O)COCCOCCOCCN)C(=O)N(CCC(=O)NCCOCCOCCOCC(=O)N[C@@H](CCCCN)C(=O)N(CCC(=O)N[C@@H](CCCCN)C(=O)N(CCC(=O)N[C@@H](CCCCN)C(=O)N(CCC(=O)NCCOCCOCCOCC(N)=O)Cc1ccc(F)cc1)Cc1ccc(F)cc1)Cc1ccc(F)cc1)Cc1ccc(F)cc1 [Compound 13, H-sPEG3-[X]3-sPEG3-[X]3-sPEG3-NH2]", "% MeCN at Elution, Luna", 41.9],
  ["NCCCC[C@H](NC(=O)CCN(Cc1ccc(F)cc1)C(=O)[C@H](CCCCN)NC(=O)CCN(Cc1ccc(F)cc1)C(=O)[C@H](CCCCN)NC(=O)CCN(Cc1ccc(F)cc1)C(=O)[C@H](CCCCN)NC(=O)CCN(Cc1ccc(F)cc1)C(=O)[C@H](CCCCN)NC(=O)CCN(Cc1ccc(F)cc1)C(=O)[C@H](CCCCN)NC(=O)COCCOCCN)C(=O)N(CCC(=O)NCCOCCOCC(N)=O)Cc1ccc(F)cc1 [Compound 4, H-sPEG2-[X]6-sPEG2-NH2]", "% MeCN at Elution, Luna", 41.3],
  ["NCCCC[C@H](NC(=O)CCN(Cc1ccc(F)cc1)C(=O)[C@H](CCCCN)NC(=O)CCN(Cc1ccc(F)cc1)C(=O)[C@H](CCCCN)NC(=O)COCCOCCN)C(=O)N(CCC(=O)NCCOCCOCC(=O)N[C@@H](CCCCN)C(=O)N(CCC(=O)N[C@@H](CCCCN)C(=O)N(CCC(=O)N[C@@H](CCCCN)C(=O)N(CCC(=O)NCCOCCOCC(N)=O)Cc1ccc(F)cc1)Cc1ccc(F)cc1)Cc1ccc(F)cc1)Cc1ccc(F)cc1 [Compound 12, H-sPEG2-[X]3-sPEG2-[X]3-sPEG2-NH2]", "% MeCN at Elution, Luna", 41.3],
  ["NCCCC[C@H](NC(=O)CCN(Cc1ccc(F)cc1)C(=O)[C@H](CCCCN)NC(=O)COCCOCCNC(=O)CCN(Cc1ccc(F)cc1)C(=O)[C@H](CCCCN)NC(=O)CCN(Cc1ccc(F)cc1)C(=O)[C@H](CCCCN)NC(=O)COCCOCCNC(=O)CCN(Cc1ccc(F)cc1)C(=O)[C@H](CCCCN)NC(=O)CCN(Cc1ccc(F)cc1)C(=O)[C@@H](N)CCCCN)C(=O)N(CCC(N)=O)Cc1ccc(F)cc1 [Compound 16, H-[X]2-sPEG2-[X]2-sPEG2-[X]2-NH2]", "% MeCN at Elution, Luna", 41.5]
]}

* * *

# test: Hydrophobicity by retention in analytical RP-HPLC (% MeCN at peak elution)
# Assay type: physicochemical
# experimental.context: Supelco Discovery BIO Wide pore C18 column; gradient 0→60% B during 15 min
property.label: % MeCN at Elution, Supelco Discovery

{"columns": ["molecule", "readout.value"],
 "data": [
  ["NCCCC[C@H](NC(=O)CCN(Cc1ccc(F)cc1)C(=O)[C@H](CCCCN)NC(=O)CCN(Cc1ccc(F)cc1)C(=O)[C@H](CCCCN)NC(=O)COCCOCCNC(=O)CCN(Cc1ccc(F)cc1)C(=O)[C@H](CCCCN)NC(=O)CCN(Cc1ccc(F)cc1)C(=O)[C@H](CCCCN)NC(=O)CCN(Cc1ccc(F)cc1)C(=O)[C@@H](N)CCCCN)C(=O)N(CCC(N)=O)Cc1ccc(F)cc1 [Compound 7, H-[X]3-sPEG2-[X]3-NH2]", "41.6 % MeCN"],
  ["NCCCC[C@H](NC(=O)CCN(Cc1ccc(F)cc1)C(=O)[C@H](CCCCN)NC(=O)COCCOCCOCCNC(=O)CCN(Cc1ccc(F)cc1)C(=O)[C@H](CCCCN)NC(=O)CCN(Cc1ccc(F)cc1)C(=O)[C@H](CCCCN)NC(=O)COCCOCCOCCNC(=O)CCN(Cc1ccc(F)cc1)C(=O)[C@H](CCCCN)NC(=O)CCN(Cc1ccc(F)cc1)C(=O)[C@@H](N)CCCCN)C(=O)N(CCC(N)=O)Cc1ccc(F)cc1 [Compound 17, H-[X]2-sPEG3-[X]2-sPEG3-[X]2-NH2]", "42.0 % MeCN"]
]}

* * *

# System: E. coli NMI 3898/15
# Format: cell-based, Escherichia coli
# experimental.context: NMI 3898/15, 20 h

{"columns": ["molecule", "readout.units", "MIC, E. coli NMI 3898/15"],
 "data": [
  ["NCCCC[C@H](NC(=O)CCN(Cc1ccc(F)cc1)C(=O)[C@H](CCCCN)NC(=O)CCN(Cc1ccc(F)cc1)C(=O)[C@H](CCCCN)NC(=O)COCCOCCN)C(=O)N(CCC(=O)NCCOCCOCC(=O)N[C@@H](CCCCN)C(=O)N(CCC(=O)N[C@@H](CCCCN)C(=O)N(CCC(=O)N[C@@H](CCCCN)C(=O)N(CCC(=O)NCCOCCOCC(N)=O)Cc1ccc(F)cc1)Cc1ccc(F)cc1)Cc1ccc(F)cc1)Cc1ccc(F)cc1 [Compound 12, H-sPEG2-[X]3-sPEG2-[X]3-sPEG2-NH2]", "µg/mL", 16],
  ["NCCCC[C@H](NC(=O)CCN(Cc1ccc(F)cc1)C(=O)[C@H](CCCCN)NC(=O)CCN(Cc1ccc(F)cc1)C(=O)[C@H](CCCCN)NC(=O)CCN(Cc1ccc(F)cc1)C(=O)[C@H](CCCCN)NC(=O)CCN(Cc1ccc(F)cc1)C(=O)[C@H](CCCCN)NC(=O)CCN(Cc1ccc(F)cc1)C(=O)[C@H](CCCCN)NC(=O)CCOCCOCCOCCOCCN)C(=O)N(CCC(N)=O)Cc1ccc(F)cc1 [Compound 3, H-sPEG4-[X]6-NH2]", "µg/mL", 16],
  ["NCCCC[C@H](NC(=O)CCN(Cc1ccc(F)cc1)C(=O)[C@H](CCCCN)NC(=O)CCN(Cc1ccc(F)cc1)C(=O)[C@H](CCCCN)NC(=O)COCCOCCOCCNC(=O)CCN(Cc1ccc(F)cc1)C(=O)[C@H](CCCCN)NC(=O)CCN(Cc1ccc(F)cc1)C(=O)[C@H](CCCCN)NC(=O)CCN(Cc1ccc(F)cc1)C(=O)[C@@H](N)CCCCN)C(=O)N(CCC(N)=O)Cc1ccc(F)cc1 [Compound 8, H-[X]3-sPEG3-[X]3-NH2]", "µg/mL", 8],
  ["NCCCC[C@H](NC(=O)CCN(Cc1ccc(F)cc1)C(=O)[C@H](CCCCN)NC(=O)COCCNC(=O)CCN(Cc1ccc(F)cc1)C(=O)[C@H](CCCCN)NC(=O)CCN(Cc1ccc(F)cc1)C(=O)[C@H](CCCCN)NC(=O)COCCNC(=O)CCN(Cc1ccc(F)cc1)C(=O)[C@H](CCCCN)NC(=O)CCN(Cc1ccc(F)cc1)C(=O)[C@@H](N)CCCCN)C(=O)N(CCC(N)=O)Cc1ccc(F)cc1 [Compound 15, H-[X]2-sPEG1-[X]2-sPEG1-[X]2-NH2]", "µg/mL", 8],
  ["NCCCC[C@H](NC(=O)CCN(Cc1ccc(F)cc1)C(=O)[C@H](CCCCN)NC(=O)CCOCCOCCOCCOCCNC(=O)CCN(Cc1ccc(F)cc1)C(=O)[C@H](CCCCN)NC(=O)CCN(Cc1ccc(F)cc1)C(=O)[C@H](CCCCN)NC(=O)CCOCCOCCOCCOCCNC(=O)CCN(Cc1ccc(F)cc1)C(=O)[C@H](CCCCN)NC(=O)CCN(Cc1ccc(F)cc1)C(=O)[C@@H](N)CCCCN)C(=O)N(CCC(N)=O)Cc1ccc(F)cc1 [Compound 18, H-[X]2-sPEG4-[X]2-sPEG4-[X]2-NH2]", "µg/mL", 16],
  ["NCCCC[C@H](NC(=O)CCN(Cc1ccc(F)cc1)C(=O)[C@H](CCCCN)NC(=O)CCN(Cc1ccc(F)cc1)C(=O)[C@H](CCCCN)NC(=O)CCOCCOCCOCCOCCN)C(=O)N(CCC(=O)NCCOCCOCCOCCOCCC(=O)N[C@@H](CCCCN)C(=O)N(CCC(=O)N[C@@H](CCCCN)C(=O)N(CCC(=O)N[C@@H](CCCCN)C(=O)N(CCC(=O)NCCOCCOCCOCCOCCC(N)=O)Cc1ccc(F)cc1)Cc1ccc(F)cc1)Cc1ccc(F)cc1)Cc1ccc(F)cc1 [Compound 14, H-sPEG4-[X]3-sPEG4-[X]3-sPEG4-NH2]", "µg/mL", 32],
  ["NCCCC[C@H](NC(=O)CCN(Cc1ccc(F)cc1)C(=O)[C@H](CCCCN)NC(=O)CCN(Cc1ccc(F)cc1)C(=O)[C@H](CCCCN)NC(=O)CCN(Cc1ccc(F)cc1)C(=O)[C@H](CCCCN)NC(=O)CCN(Cc1ccc(F)cc1)C(=O)[C@H](CCCCN)NC(=O)CCN(Cc1ccc(F)cc1)C(=O)[C@@H](N)CCCCN)C(=O)N(CCC(N)=O)Cc1ccc(F)cc1 [Compound 1, H-[Lys-βNPhe(4-F)]6-NH2]", "µg/mL", 8],
  ["NCCCC[C@H](NC(=O)CCN(Cc1ccc(F)cc1)C(=O)[C@H](CCCCN)NC(=O)CCN(Cc1ccc(F)cc1)C(=O)[C@H](CCCCN)NC(=O)CCOCCOCCOCCOCCNC(=O)CCN(Cc1ccc(F)cc1)C(=O)[C@H](CCCCN)NC(=O)CCN(Cc1ccc(F)cc1)C(=O)[C@H](CCCCN)NC(=O)CCN(Cc1ccc(F)cc1)C(=O)[C@@H](N)CCCCN)C(=O)N(CCC(N)=O)Cc1ccc(F)cc1 [Compound 9, H-[X]3-sPEG4-[X]3-NH2]", "µg/mL", 16]
]}
